These measurements were taken from the supplement of paper PMC12042874.

# experiment summary: amyloid nucleation score (Sup35N fusion, yeast selection) (log enrichment); library NNK3; higher = more nucleation; inactive = no reads after selection;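 also: zero at mode of non-aggregating sequences after 7 days selection at 30°C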
property label: amyloid nucleation score

Study these solved cases before continuing.
[
  {
    "substance": "CDTSFKIDELPYSASLHFAF",
    "amyloid nucleation score": "inactive"
  },
  {
    "substance": "FLSGVTWHAYMIHSVFMDRC",
    "amyloid nucleation score": 0.881
  },
  {
    "substance": "FSCCITNPTYTYCWEMVGVS",
    "amyloid nucleation score": "inactive"
  },
  {
    "substance": "VRSTFNCITLRTLAIRSFYH",
    "amyloid nucleation score": "inactive"
  },
  {
    "substance": "QSLVPSFDPNLCQVGVLYCC",
    "amyloid nucleation score": -0.654
  }
]

Exercise: Supply measured amyloid nucleation score of YRDRIGWQVVISII in your reply.
Key: -0.087

Exercise: Supply measured amyloid nucleation score of EHLRMCNLATIKLILLNVHP in your reply.
Key: inactive

Exercise: Supply measured amyloid nucleation score of ANGLLSFSGRADGLQTNSGC in your reply.
Key: inactive

Exercise: Supply measured amyloid nucleation score of MVNAWLNRYKMWNVFIALNR in your reply.
Key: inactive

Exercise: Supply measured amyloid nucleation score of EHFRGRVLVRCLL in your reply.
Key: inactive

Exercise: Supply measured amyloid nucleation score of VSYCAWSFEG in your reply.
Key: inactive

Exercise: Supply measured amyloid nucleation score of SDKLSFSRDPSVMRVGQVQR in your reply.
Key: inactive

Exercise: Supply measured amyloid nucleation score of GMSSLIGIDMNLSEKFGYPY in your reply.
Key: inactive

Exercise: Supply measured amyloid nucleation score of YSFVAVSSFDREHSRIFGVS in your reply.
Key: inactive

Exercise: Supply measured amyloid nucleation score of HLWCKPRLWKSLFVPYD in your reply.
Key: inactive

Exercise: Supply measured amyloid nucleation score of NVSRRGC in your reply.
Key: inactive

Exercise: Supply measured amyloid nucleation score of EFVVCTQCRVCDLIAFLGRN in your reply.
Key: 2.84

Exercise: Supply measured amyloid nucleation score of QIMIIISMRVSNMCGVSYLG in your reply.
Key: inactive

Exercise: Supply measured amyloid nucleation score of LVEIVLYWSRVWYWTRGSNV in your reply.
Key: inactive

Exercise: Supply measured amyloid nucleation score of YSFSNVLVLGSTGPGTSSQA in your reply.
Key: inactive

Exercise: Supply measured amyloid nucleation score of HSDKCDCSAVDDLLRRVVL in your reply.
Key: inactive
